System: SF-295
Experiment: NCI tumour cell line growth inhibition, 48 h
Activity calls are given as the source filed them. No stated cut-off is given here; in the data, active = GI50 up to about 1.1 µM and inactive = higher.
Give your call using only these classes: 1.0 (active), 0.0 (inactive)

- MOLECULE: "Cc1cc(=O)oc2c(C)c3oc(CBr)cc3cc12"
  CLASS_ASSIGNMENT: 0.0
- MOLECULE: "COc1cc(C2S/C(=C/c3ccccc3)C(=O)N2c2ccccc2Cl)cc(OC)c1OC (centres undefined)"
  CLASS_ASSIGNMENT: 0.0
- MOLECULE: "COc1cc(CCc2ccncc2)cc(OC)c1OC"
  CLASS_ASSIGNMENT: 0.0
- MOLECULE: "CC(=O)c1c(-c2ccc(Cl)cc2)c(C#N)c(=S)n(C2OC(CO)C(O)C(O)C2O)c1C (centres undefined)"
  CLASS_ASSIGNMENT: 0.0
- MOLECULE: "O=c1ccc2ccc(CBr)cc2o1"
  CLASS_ASSIGNMENT: 0.0

Exercise: Field: outcome | Entry: COCC(C#N)NC1CC(OC2CC(O)(C(=O)CO)Cc3c(O)c4c(c(O)c32)C(=O)c2c(OC)cccc2C4=O)OC(C)C1O (centres undefined)
Solution: 1.0

Exercise: Record: O=S(=O)(N/N=C/c1ccc(Cl)cc1Cl)c1ccccc1
Solution: 0.0

Exercise: Record: COc1cc2cccc(/N=C\c3ccccc3Cl)c2cc1OC
Solution: 0.0

Exercise: Record: O=C1c2ccccc2-c2nnc3c(c21)-c1ccccc1C3
Solution: 0.0

Exercise: Record: O=C(CCCCCCCCC(=O)OCC1OC(n2cnc3c(=O)[nH]cnc32)C(O)C1O)OCC1OC(n2cnc3c(=O)[nH]cnc32)C(O)C1O (centres undefined)
Solution: 0.0

Exercise: Record: CC(C)(CO)CNc1cc(Cl)nc(N)n1
Solution: 0.0

Exercise: Record: Cc1ccc(S(=O)(=O)NC(CCC(=O)NNc2ccccc2)C(=O)NNc2ccccc2)cc1 (centres undefined)
Solution: 0.0

Exercise: Record: Oc1cc(O)cc(-c2nc3cc(F)ccc3s2)c1
Solution: 0.0

Exercise: Record: CNc1ncnc2c1cnn2Cc1cn(COCC(O)CO)nn1 (centres undefined)
Solution: 0.0

Exercise: Record: Cc1ccc(O)c(C(c2ccc(C(c3cc(C)ccc3O)c3cc(C)ccc3O)cc2)c2cc(C)ccc2O)c1
Solution: 0.0

Exercise: Record: Cc1ccc(C2=Nc3ccccc3[S+]([O-])C(c3ccc4c(c3)OCO4)C2)cc1 (centres undefined)
Solution: 0.0

###

System: HOP-62
Experiment: NCI tumour cell line growth inhibition, 48 h
Calls of active or inactive are those of the source. Rule as the data show it: active = GI50 up to about 1.1 µM and inactive = higher.
Give your call using only these classes: yes (active), no (inactive)

Use the examples below as a reference point.
- COMPOUND: "CSC1=NC(=O)CCN1C1OCC(OC(C)=O)C(OC(C)=O)C1OC(C)=O (stereo unspecified)"
  CLASS_ASSIGNMENT: "no"
- COMPOUND: "CC(C)(C)OC(=O)NC(C)(C)C(=O)NCCC(=O)O"
  CLASS_ASSIGNMENT: "no"
- COMPOUND: "C=C(C(=C)P(=S)(C(C)C)C(C)C)P(=S)(C(C)C)C(C)C"
  CLASS_ASSIGNMENT: "no"
- COMPOUND: "COc1cccc(CC(C)NCC(O)c2ccc(O)c(O)c2)c1 (stereo unspecified)"
  CLASS_ASSIGNMENT: "no"
- COMPOUND: "NC(=S)C1=C(N)Oc2c(c(=O)oc3ccccc23)C1c1ccc(Br)cc1 (stereo unspecified)"
  CLASS_ASSIGNMENT: "no"

Exercise: Field: outcome | Entry: O=C1/C(=C/c2cccc(Br)c2)CSC/C1=C\c1cccc(Br)c1
Solution: no

Exercise: Record: CCCCCCC(=O)OC[n+]1cccc(-c2c(COC(=O)NC(C)C)c(COC(=O)NC(C)C)c3n2CCC3)c1
Solution: no

Exercise: Record: CC(C)(C)NC(=O)/C(=C\Sc1ccccc1)c1ccccc1
Solution: no

Exercise: Record: Cc1cccc(C)c1NC(=O)CCc1nnc2s/c(=C\c3ccc(Cl)cc3)c(=O)n12
Solution: no

Exercise: Record: NC(CCCCNCc1ccccc1O)C(=O)O (stereo unspecified)
Solution: no
